test system: A549/ATCC NSCLC; assay: NCI-60 one-dose screen, 48 h (100 = growth as untreated, 0 = no growth, -100 = all killed); details: 10 µM unless noted
About 83,000 compounds went through this panel and 20% of them were active in at least one assay; those are over-represented in the sample as a whole.
Parameter threshold = 70%. Response is true (1) when growth meets or exceeds it, else false (0).

**Q:** Does the reported growth for "CN1CCN(Cc2ccc(NC(=O)c3cncc(C#Cc4ncc5cnccn45)c3)cc2C(F)(F)F)CC1" fall at or above the 70% mark?
**A:** true (1)

**Q:** Would you say "COc1ccccc1NC(=O)OCC12COCN1COC2" shows growth at minimum 70%?
**A:** true (1)

**Q:** # check: growth of "Oc1[nH]c2ccccc2c1/C=c1/ccc2c(c1)N=C(c1ccc(C(F)(F)F)cc1)N=2" is greater than or equal to 70%
**A:** false (0)

**Q:** Reported growth reaches at least 70% for Cc1cc(NC(=O)C2c3ccccc3C(=O)N(CC(C)C)C2c2cccs2)no1 (stereo not given) ?
**A:** false (0)

**Q:** Entry "COc1cc(C(=O)/C=C/c2cn(-c3ccccc3)nc2-c2cccc(Nc3ccnc4cc(Cl)ccc34)c2)cc(OC)c1OC" : is its growth no less than 70%?
**A:** true (1)

**Q:** Could you please find out whether "COc1ccc(CCN2COc3c([C@@H](C)CCC=C(C)C)ccc(C)c3C2)cc1OC" has growth that meets 70% or exceeds it?
**A:** true (1)

**Q:** Is the recorded value of growth equal to or greater than 70% for this compound? "O=C(CSc1ccc(Cl)cc1)Nc1ccc(-c2nc3ccccc3s2)c(Cl)c1"
**A:** false (0)

**Q:** Please indicate if the recorded growth for "Cc1ccc(CSCc2ccc(C(=O)NC3CC3)o2)cc1" meets or exceeds 70%.
**A:** false (0)

**Q:** Does the reported growth for "CCCCCCCCCCCCCC(=S)NCCCC[C@H](NC(=O)OCc1ccccc1)C(=O)Nc1ccccc1" fall at or above the 70% mark?
**A:** false (0)

* * *

tested on: A498 renal; assay: NCI-60 one-dose screen, 48 h; conditions: 10 µM unless noted
This is part of a sample that, as a whole, favours compounds with a hit. Of some 83,000 tested, about 20% had one in any assay. Active and inactive are the calls of the source. How the source made its calls: active means growth percent below 10; inactive means the rest.
Respond with a class label; see active, inactive

**Q:** Outcome? "Cc1nn(-c2ccc(Cl)cc2)c(=O)n1CCN1CCOCC1"
**A:** inactive

**Q:** # outcome recorded in this test, key = "Clc1ccc(-c2nc(Br)cn3ccnc23)cc1"
**A:** inactive

**Q:** Check the results log: what was the call for "Cc1ccc(CSCc2ccc(C(=O)NC3CC3)o2)cc1" ?
**A:** inactive

**Q:** Query: recorded result category for "CN1CCN(Cc2ccc(NC(=O)c3cncc(C#Cc4ccc(N)nc4)c3)cc2C(F)(F)F)CC1" in this test
**A:** active

**Q:** State the result this test recorded for "O=C(NC1CC1)c1ccc(-c2nc3ccc4[nH]ncc4c3c3c2CCCC3)cc1" .
**A:** active

**Q:** For this molecule, state the assay outcome: "CCCc1n(Cc2ccc3ccccc3n2)cc[n+]1Cc1ccc2ccccc2n1"
**A:** inactive

**Q:** Returns: the outcome recorded for "CCCCCCCCCC1=NC(C)(C)CN1C(C)(C)CO" in this assay.
**A:** inactive

**Q:** Hi, do you know how "Oc1ccc(Nc2ncnc3c2sc2ncccc23)cc1" came out in this test?
**A:** active

**Q:** Lab log entry: Oc1c(C(c2ccc(F)cc2)N2CCCCC2)ccc2cncnc12 (stereo unspecified) — outcome as called in the assay?
**A:** active

**Q:** // param item: "O=C(CN1CCN(c2ccccc2)CC1)N1CCN(c2nnc(-c3ccc(Cl)cc3)c(-c3ccc(Cl)cc3)n2)CC1" ; yields the recorded call
**A:** inactive

**Q:** // param item: CCCCCCCCCCC(C(O)c1ccccc1)N1CCCCC1 (stereo unspecified) ; yields the recorded call
**A:** inactive

* * *

Consider the following compounds; for each one, report its growth.
system: RPMI-8226 leukemia; assay: NCI-60 one-dose screen, 48 h (100 = growth as untreated, 0 = no growth, -100 = all killed); details: 10 µM unless noted
About 83,000 compounds went through this panel and 20% of them were active in at least one assay; those are over-represented in the sample as a whole.
# unit: % | format: bare number

**Q:** What value of measured growth is listed for "CN(C)c1ccc(C(c2ccccc2)c2ccc(N(C)C)cc2)cc1" ?
**A:** 57.4

**Q:** growth for "CCCc1n(Cc2ccc3ccccc3n2)cc[n+]1Cc1ccc2ccccc2c1" ?
**A:** -7.06

**Q:** Item "COc1ccc(/C=C/C(=O)c2ccc(NC(=O)CSc3nnc(-c4ccc(OC)cc4)n3-c3ccccc3)cc2)cc1" has what recorded growth?
**A:** 77.5

**Q:** # get_value(readout='growth', item= O=C(Nc1ccccc1)C(CCCCN1C(=O)c2ccccc2C1=O)N1C(=O)c2ccccc2C1=O (stereo not given) )
**A:** 86.2

**Q:** Requested field: growth. Item: Cc1ccc(S(=O)(=O)NC(CCC(=O)Nc2ccc(Cl)cc2)C(=O)Nc2ccc(Cl)cc2)cc1 (stereo not given)
**A:** 13.5

* * *

system: MCF7 breast; assay: NCI-60 one-dose screen, 48 h (100 = growth as untreated, 0 = no growth, -100 = all killed); conditions: 10 µM unless noted
About 83,000 compounds went through this panel and 20% of them were active in at least one assay; those are over-represented in the sample as a whole.
endpointName: growth (%)
Numbers only; they are read as %.

**Q:** Short answer please: growth, MCF7 breast, entry CCCCC(CCc1ccccn1)C(=O)c1ccccc1 (stereo unspecified)
**A:** 105

**Q:** Under MCF7 breast: growth value of "Oc1ccc(Nc2ncnc3c2sc2ncccc23)cc1" ?
**A:** 18.8

**Q:** Fill in the recorded growth for this molecule, with MCF7 breast as test system: "Cc1nc2c(-c3cnc(N)nc3)nc(N3CCOCC3)nc2n1C(C)C"
**A:** 9.9

**Q:** // map "CNC(=O)c1cc(Oc2ccc(NC(=O)c3nc(S(C)(=O)=O)sc3-c3ccc(F)cc3)cc2)ccn1" to recorded growth (system: MCF7 breast)
**A:** 29.5

**Q:** Record "CNC(=O)c1cc(Oc2ccc(NC(=O)c3nc(S(C)(=O)=O)n(C)c3-c3ccc(F)cc3)cc2)ccn1" : what is its growth with MCF7 breast?
**A:** 79

**Q:** I'm curious: which growth was measured for "CCNC(=S)N(Cc1ccccc1)Cc1ccccc1" tested on MCF7 breast?
**A:** 107

**Q:** Given the entry "O=[N+]([O-])c1cc(F)c2cccnc2c1O" , what growth was observed with MCF7 breast?
**A:** 94.7

**Q:** GET /values?readout=growth&system=MCF7 breast&item= CCC(C)C1NC(=O)c2nc(oc2-c2ccccc2)-c2csc(n2)-c2csc(n2)-c2nc(oc2C)-c2coc(n2)CNC(=O)C(C(C)CC)NC1=O (stereo unspecified)
**A:** -68.6

**Q:** Lab request: please report growth under test system MCF7 breast for "O=C(O)/C=C(\c1nc2ccc([N+](=O)[O-])cc2[nH]1)c1cc(Cl)ccc1O"
**A:** 13.4

**Q:** Report growth for "C=C(C)c1ccc(/C=N/NC(N)=S)cc1" tested on MCF7 breast.
**A:** 51.1

**Q:** Missing value: growth, MCF7 breast, entry "C1=C\CCCCN2CC[C@H]3[C@H](CCCC/C=C\CCCN4C[C@@H](CCCCC/1)C[C@@H]3C4)C2" . Fill in?
**A:** 22.7

**Q:** Request - read-out growth | tested on MCF7 breast | molecule "COc1cccc2nc(Nc3cccc(NC(=O)c4ccc(N5CCN(C)CC5)c(C(F)(F)F)c4)c3)ccc12"
**A:** -12.9

**Q:** Short answer please: growth, MCF7 breast, entry "O=C1Cc2c([nH]c3ccc([N+](=O)[O-])cc23)-c2ccccc2N1"
**A:** 8.43

**Q:** Item: "COc1c(B(O)O)cccc1-c1nc2ccc3[nH]ncc3c2c2c1CCCC2" Test system: MCF7 breast Read-out: growth Value: ?
**A:** 2.24

**Q:** Look up growth with MCF7 breast for this molecule: "Cc1nc2n[nH]c(N)c2nc1C"
**A:** 94.8

**Q:** Lookup: growth / MCF7 breast / "O=C(Nc1ccc(OS(=O)(=O)c2ccc(F)cc2)cc1)C12CC3CC(CC(C3)C1)C2"
**A:** 34

**Q:** What reported growth corresponds to COc1ccc(/C=C2\CCCC3=C2N=C2SC(C)=NN2C3c2ccc(OC)c(OC)c2)cc1OC (stereo unspecified) on MCF7 breast?
**A:** 19.3

**Q:** Enter reported growth observed with MCF7 breast for "Cc1cc(C)c2c(NC(=O)Nc3ccc(Cl)c(Cl)c3)n[nH]c2n1"
**A:** 82.6

**Q:** I'm curious: which growth was measured for "CCOC(=O)Nc1ccc2nc(-c3cscn3)[nH]c2c1" tested on MCF7 breast?
**A:** 34

**Q:** Any idea what growth came out for CC(CN1CCN(CCOCCO)CC1)CN1c2ccccc2Sc2ccc(Cl)cc21 (stereo unspecified) on MCF7 breast?
**A:** 55.6

**Q:** Return growth measured with MCF7 breast given this molecule: "COc1ccc(/C=C2\N=C(c3cccnc3)N(c3ccccc3)NC2=O)cc1"
**A:** 91.5
